- test system: Endothelial lipase (EL) (Homo sapiens)
- Construct: transformed by RAGE technology (Athersys) to overexpress endogenous EL; endogenous in cells; the conditioned medium served as the enzyme source
- Sequence (Q9Y5X9 21-500): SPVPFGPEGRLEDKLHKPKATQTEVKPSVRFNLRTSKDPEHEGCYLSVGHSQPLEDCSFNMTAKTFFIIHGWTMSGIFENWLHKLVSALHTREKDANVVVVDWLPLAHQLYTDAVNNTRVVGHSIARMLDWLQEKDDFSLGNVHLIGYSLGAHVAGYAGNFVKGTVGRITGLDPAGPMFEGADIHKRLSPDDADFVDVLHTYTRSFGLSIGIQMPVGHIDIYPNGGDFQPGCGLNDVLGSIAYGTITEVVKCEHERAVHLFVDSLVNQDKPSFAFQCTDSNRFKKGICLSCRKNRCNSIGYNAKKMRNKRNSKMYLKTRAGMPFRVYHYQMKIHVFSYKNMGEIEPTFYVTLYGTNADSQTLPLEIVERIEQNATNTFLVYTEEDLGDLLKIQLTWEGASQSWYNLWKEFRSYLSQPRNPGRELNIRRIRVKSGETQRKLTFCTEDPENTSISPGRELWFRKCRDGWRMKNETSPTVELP
- assay remarks: Endothelial lipase (EL) enzymatic assay with fluorescent substrate A10070 in DMPG vesicles
- experimental context: conditioned media from HT-1080 cells overexpressing endogenous EL; 20 min preincubation at 37° C.
measured endpoint: pIC50
Numbers only, as −log10 of the molar value.

>  <molecule>
N#CC(C(=O)NCC(=O)NC1CC1)c1nc2ccc(-c3ccc(C(=O)N4CCC4)cc3)cc2s1 (centres unmarked)

>  <measured endpoint>
pIC50

>  <measured value>
7.82

$$$$

Below are 6 molecules. Give each one its pIC50.
1. COCCNC(=O)c1ccc(-c2cnc3nc(C(C#N)C(=O)NCC(=O)NC4CC4)sc3c2)cc1 (centres unmarked)
2. N#CC(C(=O)NCC(=O)NC1CC1)c1nc2cc(-c3ccccc3)c(F)cc2s1 (centres unmarked)
3. N#CC(C(=O)NCC(=O)NC1CC1)c1nc2ccc(-c3ccc(C(=O)N4CCCCC4)cc3)cc2s1 (centres unmarked)
4. N#CC(C(=O)NCC(=O)NC1CC1)c1nc2ccc(-c3ccc4c(c3)C(=O)NC4)cc2s1 (centres unmarked)
5. N#CC(C(=O)NCC(=O)NC1CC1)c1nc2ccc(-c3ccc4c(c3)CNC4=O)cc2s1 (centres unmarked)
6. N#CC(C(=O)NCC(=O)NC1CC1)c1nc2ccc(-c3cccc(C(=O)N4CCOCC4)c3)cc2s1 (centres unmarked)

Found:
[7.40, 7.89, 7.96, 6.59, 8.30, 7.74]
